Test: gradient 5% acetonitrile 3 min, to 50% in 2 min, to 85% in 15 min, held 3 min, 100 µL/min
Conditions: column: Zorbax Extend-C18 2.1 x 50 mm; eluents: water / acetonitrile, 0.1% formic acid
# label = bin(measured RP-LC retention time), where bins are class 0: < 700 s; class 1: ≥ 700 s and < 800 s; class 2: ≥ 800 s

Example cases with answers are listed next.
structure.notation	qualitative.label
Nc1c(Cl)ncnc1NCCO	class 0
Cn1c(=O)sc2cc(S(=O)(=O)N3CCC(C(=O)Nc4ccccc4)CC3)ccc21	class 2
O=C(Nc1c(-c2ccc(F)cc2)nc2ccccn12)c1ccc2ccccc2c1	class 1
CCc1noc(NC(C)=O)c1-c1ccc(OC)c(S(=O)(=O)Nc2ccc(C)c(F)c2)c1	class 2
O=C(CSc1nnc2scc(-c3ccc(Cl)cc3)n12)Nc1ccccc1F	class 2
Clc1ccc2nc(-c3cccc(Br)c3)c(Nc3ccc4c(c3)OCCO4)n2c1	class 2
Cn1cc(CCN2CCC(C(=O)NC3CCCCCC3)CC2)c2cccnc21	class 0
O=C(CSc1nccn1Cc1ccc(Cl)cc1)NCCc1ccccc1	class 0

Asked: Class (by measured RP-LC retention time) for Cc1cc(C)cc(C(=O)N2CCC(COc3ccc(C(=O)NC(C)C)cc3)CC2)c1
Given back: class 2

Asked: // return the class label for Cn1ccc(C(=O)N2CC(n3cc(COc4ccc(F)cc4)nn3)C2)n1
Given back: class 1

Asked: Exercise: read the entry CC(=O)Nc1cc(-c2nc(-c3ccc4oc(-c5ccccc5)nc4c3)no2)ccc1C and state which class it falls under.
Given back: class 1

---

Test: gradient 5% acetonitrile 3 min, to 50% in 2 min, to 85% in 15 min, held 3 min, 100 µL/min
Conditions: column: Zorbax Extend-C18 2.1 x 50 mm; eluents: water / acetonitrile, 0.1% formic acid
property.label: RP-LC retention time (s)
Please state the figure in s; there is no need to write the unit.

compound	quantitative.result
CC(C)CN1C(=O)c2ccccc2C(C(=O)NCc2ccccn2)C1c1cccs1 (centres undefined)	632
COc1ccc(C(=O)NCc2ccc3c(c2)ncn3C(C)C)cc1F	632
O=C(CN1C(=O)CCCc2ccccc21)NCCc1ccccc1	783

--- query ---
Asked: Quote RP-LC retention time reported for Cc1cccc(C)c1NC1=NCCCS1 please.
Given back: 635

---

Experiment: gradient 5% acetonitrile 3 min, to 50% in 2 min, to 85% in 15 min, held 3 min, 100 µL/min
Conditions: column: Zorbax Extend-C18 2.1 x 50 mm; eluents: water / acetonitrile, 0.1% formic acid
RP-LC retention time values, listed per item
Lab book: enter the figure in s, no units written.

Asked: Provide measured RP-LC retention time value, entry: c1cncc(-c2nc(-c3ccnc(N4CCOCC4)c3)no2)c1
Given back: 953

Asked: Look up RP-LC retention time of O=C(c1n[nH]c2ccccc12)N1CCCC1c1nc(-c2cccc(C(F)(F)F)c2)no1 (stereo not given) and report it.
Given back: 1330

Asked: Quote RP-LC retention time reported for CCCn1cc(C(=O)NC(C)c2ccc(OC)cc2)c2cccnc21 (stereo not given) please.
Given back: 869

Asked: Identify RP-LC retention time associated with the compound Cc1ccc(Cl)cc1NS(=O)(=O)c1cc(-c2nc(C(C)C)cs2)cs1
Given back: 1230

Asked: Could you please provide reported RP-LC retention time for COc1ccc(OCc2noc(CNC(=O)CSc3nnnn3C)n2)cc1 ? Thanks!
Given back: 658

---

The entries below are paired with their reported RP-LC retention time.
Experiment: gradient 5% acetonitrile 3 min, to 50% in 2 min, to 85% in 15 min, held 3 min, 100 µL/min
Conditions: column: Zorbax Extend-C18 2.1 x 50 mm; eluents: water / acetonitrile, 0.1% formic acid
Give your result in s as a bare value.

Recorded results for 2 molecules are shown here.
molecule	RP-LC retention time [s]
O=C(Nc1c(-c2ccccc2)nc2ccccn12)c1ccc(Cl)cc1Cl	677
CC1(C)C2CCC(CN=C(N)CSS(=O)(=O)O)C1C2 (stereo not drawn)	738

Asked: Answer with the recorded RP-LC retention time of O=C(Cn1cc(-c2ccccc2)c2ncnc(N3CCOCC3)c21)NC1CCCC1 only.
Given back: 717

---

Assay: gradient 5% acetonitrile 3 min, to 50% in 2 min, to 85% in 15 min, held 3 min, 100 µL/min
Conditions: column: Zorbax Extend-C18 2.1 x 50 mm; eluents: water / acetonitrile, 0.1% formic acid
Classification by RP-LC retention time | ranges: lower (below 700 s), middle (700 s to below 800 s), upper (800 s or more)

Known results for compounds:
compound	qualitative.label
Cc1cccc(N2CCN(C(=O)C3CCN(C(=O)C4Sc5ccccc5NC4=O)CC3)CC2C)c1 (stereo not drawn)	middle
O=[N+]([O-])c1c(NCCO)cc(N2CCN(c3ccccn3)CC2)c2nonc12	lower
COc1ccc(Cl)cc1NC(=O)COc1nc(C)nc2ccccc12	upper

Asked: Returns: class label. Input: Cn1c(=O)n(C)c2cc(N3CCCCC3)c(NC(=O)c3cccs3)cc21
Given back: upper

Asked: Into which bin does this compound go? CCOc1ccccc1NC(=O)c1cnn(-c2ccc(Br)cc2)c1
Given back: upper

Asked: Lab note: which band did CC(CNC(=O)C1CCN(S(=O)(=O)c2cn(C(C)C)cn2)CC1)c1ccccc1 (stereo not drawn) land in?
Given back: middle

Asked: Input CCn1ccc2sc(C)c(C(=O)NCc3ccccc3Cl)c2c1=O ; output its category
Given back: upper

Asked: Bin? COc1ccc(NC2CS(=O)(=O)CC2O)cc1 (stereo not drawn)
Given back: lower

Asked: Pick a category. Item: COc1cc(C(=O)N2CCC(CC(=O)N3CCOCC3)CC2)cc(OC)c1OC
Given back: lower

Asked: Class? Entry: CSc1cccc2sc(Nc3nc(C)c(C(C)=O)s3)nc12
Given back: upper

---

Quick reference: RP-LC retention time of the listed items.
Assay: gradient 5% acetonitrile 3 min, to 50% in 2 min, to 85% in 15 min, held 3 min, 100 µL/min
Details: column: Zorbax Extend-C18 2.1 x 50 mm; eluents: water / acetonitrile, 0.1% formic acid
Express your answer in s, writing the number without its unit.

Example compounds with recorded RP-LC retention time:
compound	RP-LC retention time (s)
Cc1cc(-c2csc(S(=O)(=O)NCCCN3CCN(c4ccccc4F)CC3)c2)on1	704
CCc1ccc(-n2nnc3c(=O)n(Cc4nc(-c5ccccc5Cl)no4)cnc32)cc1	1120
Cc1ccc(NC(=O)Nc2nccn(-c3ccc(F)cc3)c2=O)cc1C	1020
CCCCOc1ccc(-c2nc(C3CC(=O)N(c4ccc(F)cc4)C3)no2)cc1 (configuration not stated)	1240

Asked: Please report the measured RP-LC retention time for Cc1oc(C2CCN(C(=O)Cc3ccccc3Cl)CC2)nc1C(=O)N1CCCC1
Given back: 820

Asked: Find the measured RP-LC retention time of Fc1cccc(N2CC3(CCNCC3)C2c2ccccc2)c1 (configuration not stated) and report it.
Given back: 721

Asked: Output measured RP-LC retention time for this item: CCN1CCN(CCCNC(=O)c2cc3sccc3n2C)CC1
Given back: 569

Asked: Return the recorded RP-LC retention time value; entry: Cc1ccc(C)c(NC(=O)CC2COc3ccccc3NC2=O)c1 (configuration not stated)
Given back: 738

Asked: Please indicate RP-LC retention time recorded for CCN1C(=O)CCc2cc(NS(=O)(=O)c3ccc(F)c(C)c3)ccc21
Given back: 834

Asked: Recall and state the measured RP-LC retention time for CCOC(=O)c1cccc(NC(=O)Cn2ccc3ccc(-c4nnc(CC)o4)cc32)c1 .
Given back: 910

Asked: Fill in reported RP-LC retention time for this entry: CN1C(=O)c2cccnc2Sc2cc(NC(=O)c3ccc(C(F)(F)F)cc3)ccc21
Given back: 910

Asked: Recall and state the measured RP-LC retention time for O=C(C1COc2ccccc2O1)N1CCCC(c2nnc(-c3ccccc3F)s2)C1 (configuration not stated) .
Given back: 922

Asked: Specify measured RP-LC retention time for COCc1nc(C2CCCN(C(=O)NC3CCCC3)C2)no1 (configuration not stated) .
Given back: 743

Asked: Give the measured RP-LC retention time for Cc1noc(-c2cc(=O)n(CC(=O)Nc3ccc4c(c3)OCCO4)c3ccccc23)n1
Given back: 803

Asked: Give RP-LC retention time for Cc1cc(=O)n(CC(=O)NC(C)CCc2ccccc2)c(N2CCOCC2)n1 (configuration not stated)
Given back: 713

Asked: For the compound CCNC(=O)C1CCN(S(=O)(=O)c2cc(C(=O)N3CCCCCC3)cs2)CC1 , give its measured RP-LC retention time value.
Given back: 717

Asked: Please list RP-LC retention time recorded for the compound COc1ccc(NC(=O)C2CCCN(Cc3nc(-c4cccs4)no3)C2)cc1Cl (configuration not stated)
Given back: 728

---

Test: gradient 5% acetonitrile 3 min, to 50% in 2 min, to 85% in 15 min, held 3 min, 100 µL/min
Conditions: column: Zorbax Extend-C18 2.1 x 50 mm; eluents: water / acetonitrile, 0.1% formic acid
property.label: RP-LC retention time (s)
Write the value in s as a bare number.

Asked: // Input: Cc1nc(-c2ccc(-c3noc(CNC(=O)Cc4ccc(Cl)cc4)n3)cc2)cs1 . Output its RP-LC retention time only.
Given back: 990

Asked: For COc1cccc(C(=O)N2CCC3(CC2)NC(=O)c2cc(F)ccc2N3C)c1 , write its RP-LC retention time.
Given back: 762

Asked: Determine its reported RP-LC retention time: CN1c2cc(F)ccc2C(=O)NC12CCN(C(=O)c1ccc(Cl)cc1)CC2
Given back: 785
